// provenance: PubChem BioAssay AID1671194

- assay-details: Primary qHTS assay for inhibitors of alpha-synuclein gene (SNCA) expression; further: nearly all actives have a fitted effect of over 45% in size
- stated-conditions: HEK-293 SNCA-luciferase knock-in, luminescence, 24 h; series mostly up to 57.2 µM
In all, about 140,000 compounds went through this assay and about 240 (0.17%) were called active. Roughly 9% stayed inconclusive and do not appear here. The call rests on the fitted dose curve; in most records, active means well fitted inhibition curve with a large enough effect; inconclusive means small, poorly fitted or top-dose-only effect; inactive means no such curve, though single readings can be large or run the other way. The sample holds actives, similar compounds and a random draw of the others, so the mix is not that of the screen.
Outcomes: active, inactive

>  <compound>
CCC(=O)N1CCC2(CC1)OCC(C(=O)NCc1ccccc1)N2C(=O)c1ccc(C)cc1 (stereo not given)

>  <label-value>
inactive

$$$$
>  <compound>
CCOC(=O)C1CCCN(C(=O)Cc2ccc(N(Cc3cccc(F)c3)C(=O)c3ccco3)cc2)C1 (stereo not given)

>  <label-value>
inactive

$$$$
>  <compound>
COc1ccc(C(=O)N2CCCC2C(=O)N2CCCC2c2nc3ccncc3[nH]2)cc1 (stereo not given)

>  <label-value>
inactive

$$$$
>  <compound>
c1cc(-c2nc3ccncc3[nH]2)ccn1

>  <label-value>
inactive

$$$$
>  <compound>
Cc1cccc(C(=O)N2CCC3(CC2)CC(CC(=O)NCc2ccncc2)CCO3)c1 (stereo not given)

>  <label-value>
inactive

$$$$
>  <compound>
Cc1ccc(S(=O)(=O)N2CCC3(CC2)C(=O)N(CC(=O)NC(C)C)CN3c2ccccc2)cc1

>  <label-value>
inactive

$$$$
>  <compound>
O=C(c1nc2cccnc2n(Cc2ccccc2)c1=O)N1CCN([S+](=O)([O-])c2ccccc2)CC1

>  <label-value>
inactive

$$$$
>  <compound>
O=C1NCCc2[nH]c(-c3ccncc3)cc21

>  <label-value>
active

$$$$
>  <compound>
COc1ccccc1-c1[nH]nc2ncc(-c3cccc(CO)c3)nc12

>  <label-value>
inactive

$$$$
>  <compound>
CCOc1ccccc1C(=O)Nc1ccc2c(c1)N(C)C(=O)c1ccccc1S2

>  <label-value>
inactive

$$$$
